Tested on: HCT-116
Experiment Summary: Antiproliferative activity against human HCT116 cells measured on day 4 by Cell titer-glo assay
Type: functional, cell-based
Setup Conditions: Homo sapiens, HCT-116, 96 h
Provide the recorded EC50 for the entries that follow.
Give bare numbers, in nM.

Study these solved cases before continuing.
# Molecule, Scale Unit, EC50
data = [
    ("Cc1c2c(n3c1CCC(C)NCCNc1cc-3ccc1C(N)=O)CC(C)(C)CC2=O (configuration not stated)", "nM", 940),
    ("Cc1c2c(n3c1CCCNCC(C)(C)Nc1cc-3ccc1C(N)=O)CC(C)(C)CC2=O", "nM", 620),
]

Would you mind giving EC50 for every molecule in the list below?
1. Cc1c2c(n3c1CC[C@H](C)N[C@H](C)CNc1cc-3ccc1C(N)=O)CC(C)(C)CC2=O
2. Cc1c2c(n3c1CCNCC(O)CNc1cc-3ccc1C(N)=O)CC(C)(C)CC2=O (configuration not stated)
3. Cc1c2c(n3c1CC[C@@H](C)N[C@H](C)CNc1cc-3ccc1C(N)=O)CC(C)(C)CC2=O
4. Cc1c2c(n3c1CCNCC(C)CNc1cc-3ccc1C(N)=O)CC(C)(C)CC2=O (configuration not stated)
5. CC(=O)N1CCc2c(C)c3c(n2-c2ccc(C(N)=O)c(c2)N[C@@H](C)CC1)CC(C)(C)CC3=O
6. Cc1c2c(n3c1CCCNCCNc1cc-3ccc1C(N)=O)CC(C)(C)CC2=O
7. Cc1c2c(n3c1CCNCCCNc1cc-3ccc1C(N)=O)CC(C)(C)CC2=O

360
600
30
250
150
820
8140

Write down EC50 measured for item Cc1c2c(n3c1CCNCCOCCNc1cc-3ccc1C(N)=O)CC(C)(C)CC2=O
830

###

Here's what we have: IC50 numbers for Heat shock protein HSP 90-alpha (Homo sapiens).
Answers are plain numbers, in nM.

Study these solved cases before continuing.
# Smiles Data, Attribute Measured, Recorded Number
data = [
    ("Cc1c2c(n3c1CCNCCCNc1cc-3ccc1C(N)=O)CC(C)(C)CC2=O", "IC50", 400),
    ("Cc1c2c(n3c1CC[C@@H](C)N[C@H](C)CNc1cc-3ccc1C(N)=O)CC(C)(C)CC2=O", "IC50", 90),
    ("CC(=O)N1CCc2c(C)c3c(n2-c2ccc(C(N)=O)c(c2)N[C@@H](C)CC1)CC(C)(C)CC3=O", "IC50", 110),
]

Next:
Write down IC50 measured for item Cc1c2c(n3c1CC[C@H](C)N[C@H](C)CNc1cc-3ccc1C(N)=O)CC(C)(C)CC2=O
430
